System: NCI-H23
Experiment Notes: NCI tumour cell line growth inhibition, 48 h
The source made the active and inactive calls. Cut-off read from the data, not from the text of the source: active = GI50 up to about 1.1 µM and inactive = higher. Where a SMILES comes first, the peptide text is derived from it. The star is where a group is joined. Boc = CC(C)(C)OC(=O)*; tBu = CC(C)(C)*

- Compound: "CC(OC(C)(C)C)C(NC(=O)C(N)CCCCNC(=O)OC(C)(C)C)C(=O)NC(Cc1ccccc1)C(=O)O (stereo unspecified) (H-Lys(Boc)-Thr(tBu)-Phe-OH; configuration not given here)"
  GI50: "> 100 µM (inactive)"
- Compound: "C[C@H]1C2Cc3cc(N)ccc3[C@@]1(C)CCN2CCc1ccccc1"
  GI50: "32.8 µM (inactive)"
- Compound: "O=C(Nc1ccc2[nH]c3c(-c4ccccc4)nccc3c2c1)c1ccccc1[N+](=O)[O-]"
  GI50: "4.37 µM (inactive)"
- Compound: "CC(C)=CCC/C(=C\\CC/C(=C\\CCc1ccoc1)C(=O)O)C(=O)O"
  GI50: "> 100 µM (inactive)"
- Compound: "OC1=CN=C(c2ccccc2)Oc2ccccc21"
  GI50: "> 100 µM (inactive)"
- Compound: "O=C(NCC(=O)N1CCOC1=O)OCc1ccccc1"
  GI50: "> 100 µM (inactive)"
- Compound: "COC(=O)/C(=C/c1ccc(OC)cc1)NC(=O)c1ccccc1"
  GI50: "> 100 µM (inactive)"
- Compound: "COc1cc2c(cc1OC)C(C(=O)c1cccc(OC)c1OC)C(=O)N(C)CC2 (stereo unspecified)"
  GI50: "> 100 µM (inactive)"
- Compound: "CCOC(=O)/C(=C\\n1c(=O)sc2ccccc21)C(=O)c1ccccc1"
  GI50: "> 100 µM (inactive)"
- Compound: "COc1ccc(NC2=NCCO2)c2c1CCCC2"
  GI50: "25.5 µM (inactive)"
- Compound: "O=C(c1ccccc1)C1OC12C(=O)Nc1ccccc12 (stereo unspecified)"
  GI50: "21.5 µM (inactive)"
- Compound: "Cc1cccc(C)c1Nc1nc(C)c(C(=O)CC(=O)C(=O)Nc2c(C(C)C)cccc2C(C)C)s1"
  GI50: "> 100 µM (inactive)"
- Compound: "O=C1/C(=C/c2ccc(O)c(CN3CCCCC3)c2)CCC/C1=C\\c1ccc(O)c(CN2CCCCC2)c1"
  GI50: "5.52 µM (inactive)"
- Compound: "COC(=O)c1ccccc1C1CN=NC12Cc1ccc(C)c(C)c1C2=O (stereo unspecified)"
  GI50: "19.1 µM (inactive)"
- Compound: "C[C@]12O[C@@]3(C)O[C@@]3(C)[C@]3(C)O[C@]3(C)[C@@]1(C)O2"
  GI50: "> 100 µM (inactive)"
- Compound: "COc1c(O)cc(/C=C/c2cc(O)cc3c2[C@@]2(C(=O)O3)c3c(O)cc(O)cc3OC2c2cccc(O)c2)cc1O (stereo partly specified)"
  GI50: "81.7 µM (inactive)"
- Compound: "O=C(O)c1oc2cccc3c2c1CCC3"
  GI50: "> 100 µM (inactive)"
- Compound: "CC(=O)OCC1OC(Nc2ccc3nc(C)n(-c4cccc(C)c4)c(=O)c3c2)C(OC(C)=O)C(OC(C)=O)C1OC(C)=O (stereo unspecified)"
  GI50: "> 62.5 µM (inactive)"
- Compound: "C=CCCC(On1c(-c2ccc(Cl)cc2)csc1=S)c1ccccc1 (stereo unspecified)"
  GI50: "39.4 µM (inactive)"
- Compound: "COc1cc([N+](=O)[O-])ccc1N1C(=O)C2c3[nH]c4ccccc4c3C3CCC(C(C)(C)C)CC3C2C1=O (stereo unspecified)"
  GI50: "31 µM (inactive)"
- Compound: "COc1ccc2c(c1)N1CCc3cc(OC)c(OC)cc3C1C2 (stereo unspecified)"
  GI50: "50.1 µM (inactive)"
- Compound: "O=[N+]([O-])C(/C(Cl)=C(/Cl)N1CCCCC1)=C1\\NCCO1"
  GI50: "> 100 µM (inactive)"
- Compound: "C=C1CCCCCCCCCCC1[S+]([O-])c1ccccc1 (stereo unspecified)"
  GI50: "58.5 µM (inactive)"
- Compound: "Cc1n[nH]c(=O)n1Nc1ccccc1"
  GI50: "> 100 µM (inactive)"
- Compound: "COc1cc(OC)c(OC)cc1/C=C/c1ccc2ccccc2n1"
  GI50: "2.89 µM (inactive)"
- Compound: "COc1ccc(/C=N/Nc2nc(=S)[nH]c3[nH]ncc23)cc1"
  GI50: "27.5 µM (inactive)"
- Compound: "CCOC(=O)CCn1ncc(Cl)c(Cl)c1=O"
  GI50: "2.27 µM (inactive)"
- Compound: "O=C(c1ccccn1)c1nc(-c2ccc(Cl)c(Cl)c2)nc2ccc(Cl)cc12"
  GI50: "20.3 µM (inactive)"
- Compound: "NCCCC1NC(=O)/C(=C(O)/C=C/C2CCC[C@@H]2CC2SCCS2)C1=O (stereo partly specified)"
  GI50: "> 100 µM (inactive)"
- Compound: "O=c1c(S(=O)(=O)Oc2ccccc2)coc2cc(F)ccc12"
  GI50: "82.2 µM (inactive)"
- Compound: "Cc1ccc(NC(=O)CC(=O)N2N=C(N(c3ccccc3)c3ccccc3)CC2c2ccccc2)cc1 (stereo unspecified)"
  GI50: "> 100 µM (inactive)"
- Compound: "Cc1[nH]n(C2=NCCN2)c(=O)c1C"
  GI50: "> 100 µM (inactive)"
- Compound: "CSc1nc(O)c2cn(Cc3ccccc3)nc2n1"
  GI50: "> 100 µM (inactive)"
- Compound: "COc1ccc(OC)c([N+](=O)[O-])c1-c1nc2sc(C)c(C)n2c1/C=N/N=C(N)N"
  GI50: "> 100 µM (inactive)"
- Compound: "COc1ccc(/C(Cl)=C(\\CN(C)C)c2ccc(OC)c(OC)c2)cc1OC"
  GI50: "> 100 µM (inactive)"
- Compound: "COc1cc(C2c3cc4c(cc3[C@@H](Nc3ccc(Oc5ccccc5)cc3)C3COC(=O)[C@H]23)OCO4)cc(OC)c1O (stereo partly specified)"
  GI50: "1.12 µM (inactive)"
- Compound: "COc1ccc(C2CC(=O)c3c(O)cc(O)cc3O2)cc1O (stereo unspecified)"
  GI50: "> 100 µM (inactive)"
- Compound: "CN(C)CCCNc1ccnc2cc([N+](=O)[O-])ccc12"
  GI50: "11.7 µM (inactive)"
- Compound: "Cc1ccc(O)c(-c2cscn2)c1"
  GI50: "39.4 µM (inactive)"
- Compound: "O=C(NCP(=O)(O)O)c1cccnc1"
  GI50: "> 100 µM (inactive)"
- Compound: "CCC(=C/[C@H](C)C/C=C/C(C)=C/[C@@H](C)C(=O)[C@@H](C)[C@H](O)[C@@H](C)CC)/C=C/[C@H]1CC=CC(=O)O1"
  GI50: "< 0.0012 µM (active)"
